meta.source: patent US20230330254A1

Target Under Test: human GLP1R (Homo sapiens)
Sequence (P43220 24-463): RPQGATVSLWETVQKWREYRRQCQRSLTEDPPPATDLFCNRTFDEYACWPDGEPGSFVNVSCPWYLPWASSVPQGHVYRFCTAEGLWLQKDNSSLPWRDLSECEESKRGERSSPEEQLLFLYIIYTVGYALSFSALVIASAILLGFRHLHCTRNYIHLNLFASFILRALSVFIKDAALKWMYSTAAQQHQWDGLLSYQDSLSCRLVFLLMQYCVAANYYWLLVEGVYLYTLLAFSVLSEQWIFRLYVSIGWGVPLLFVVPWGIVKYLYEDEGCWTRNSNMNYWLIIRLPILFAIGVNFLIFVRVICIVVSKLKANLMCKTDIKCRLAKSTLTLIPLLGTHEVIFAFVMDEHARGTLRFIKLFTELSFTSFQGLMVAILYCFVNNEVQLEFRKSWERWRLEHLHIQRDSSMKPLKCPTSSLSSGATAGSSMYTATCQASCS
Method Description: Luciferase reporter assay, HEK293/CRE-Luc/hGLP1R (Example 17)
Assay type: cell-based
Set-up: engineered to express full-length human GLP1R, cynomolgus GLP1R; expressed in transfected cells; host or cells: HEK293/CRE-Luc
Stated Conditions: HEK293/CRE-Luc/hGLP1R; relative to M2361 of the same experiment
Where a SMILES comes first, the peptide text is derived from it. [ ]: non-standard residue; d: D form. The star is where a group is joined. Bip(2'-Et,4'-O(CH2)4NH2) = CCc1cc(OCCCCN)ccc1-c1ccc(C[C@H](N)C(=O)O)cc1; Malonyl(2,2-Me2,histaminyl) = CC(C)(C(=O)NCCc1cnc[nH]1)C(=O)*; Nva(5-(3,5-Me2Ph)) = Cc1cc(C)cc(CCC[C@H](N)C(=O)O)c1; Ala(1H-tetrazol-5-yl) = N[C@@H](Cc1nnn[nH]1)C(=O)O; αMePhe(2-F) = C[C@](N)(Cc1ccccc1F)C(=O)O; X8 = O=C([C@H]1CCN(CCc2cnc[nH]2)C1)*; X6 = CC(C)(C(=O)NO)C(=O)*; NHPh = c1ccc(N*)cc1
Kindly apply the following: TRUE if Relative Potency (% M2361 EC50) is less than 30%, FALSE in every other case.

Molecule | Answer Label
CCc1cc(OCCCCN)ccc1-c1ccc(C[C@H](NC(=O)[C@H](CC(=O)O)NC(=O)[C@H](CO)NC(=O)[C@@H](NC(=O)[C@](C)(Cc2ccccc2F)NC(=O)[C@@H](NC(=O)CNC(=O)[C@H](Cc2nn[nH]n2)NC(=O)C(C)(C)C(=O)NCCc2cnc[nH]2)[C@@H](C)O)[C@@H](C)O)C(=O)N[C@@H](CCCc2cc(C)cc(C)c2)C(N)=O)cc1 [P9] ({Malonyl(2,2-Me2,histaminyl)}-[Ala(1H-tetrazol-5-yl)]GT[αMePhe(2-F)]TSD[Bip(2'-Et,4'-O(CH2)4NH2)][Nva(5-(3,5-Me2Ph))]-NH2) | FALSE

Enquiry: Determine if CCc1cc(OCCCCNC(=O)[C@H](CO)NC(=O)CNC(=O)CNC(=O)CNC(=O)CNC(=O)C(CO)NC(=O)CNC(=O)CNC(=O)CNC(=O)CN)ccc1-c1ccc(C[C@H](NC(=O)[C@H](CC(=O)O)NC(=O)[C@H](CO)NC(=O)[C@@H](NC(=O)[C@](C)(Cc2ccccc2F)NC(=O)[C@@H](NC(=O)CNC(=O)[C@H](Cc2nn[nH]n2)NC(=O)C(C)(C)C(=O)NCCc2cnc[nH]2)[C@@H](C)O)[C@@H](C)O)C(=O)N[C@@H](CCCc2cc(C)cc(C)c2)C(N)=O)cc1 (stereo partly drawn) shows Relative Potency (% M2361 EC50) strictly lower than 30%.
Return: FALSE

Enquiry: Determine if CCc1cc(OCCCCN)ccc1-c1ccc(C[C@H](NC(=O)[C@H](CC(=O)O)NC(=O)[C@H](CO)NC(=O)[C@@H](NC(=O)[C@](C)(Cc2ccccc2F)NC(=O)[C@@H](NC(=O)CNC(=O)[C@H](Cc2nn[nH]n2)NC(=O)C(C)(C)C(=O)NO)[C@@H](C)O)[C@@H](C)O)C(=O)N[C@@H](CCCc2cc(C)cc(C)c2)C(N)=O)cc1 [P5] (X6-[Ala(1H-tetrazol-5-yl)]GT[αMePhe(2-F)]TSD[Bip(2'-Et,4'-O(CH2)4NH2)][Nva(5-(3,5-Me2Ph))]-NH2) shows Relative Potency (% M2361 EC50) strictly lower than 30%.
Return: TRUE

Enquiry: Determine if CCc1cc(OCCCCN)ccc1-c1ccc(C[C@H](NC(=O)[C@H](CC(=O)O)NC(=O)[C@H](CO)NC(=O)[C@@H](NC(=O)[C@](C)(Cc2ccccc2F)NC(=O)[C@@H](NC(=O)CNC(=O)[C@H](Cc2nn[nH]n2)NC(=O)[C@H]2CCN(CCc3cnc[nH]3)C2)[C@@H](C)O)[C@@H](C)O)C(=O)N[C@@H](CCCc2cc(C)cc(C)c2)C(N)=O)cc1 [P16] (X8-[Ala(1H-tetrazol-5-yl)]GT[αMePhe(2-F)]TSD[Bip(2'-Et,4'-O(CH2)4NH2)][Nva(5-(3,5-Me2Ph))]-NH2) shows Relative Potency (% M2361 EC50) strictly lower than 30%.
Return: TRUE

Enquiry: Determine if CCc1cc(OCCCCN)ccc1-c1ccc(C[C@H](NC(=O)[C@H](CC(=O)O)NC(=O)[C@H](CO)NC(=O)[C@@H](NC(=O)[C@](C)(Cc2ccccc2F)NC(=O)[C@@H](NC(=O)CNC(=O)[C@H](Cc2nn[nH]n2)NC(=O)C(C)(C)C(=O)NCCc2cnc[nH]2)[C@@H](C)O)[C@@H](C)O)C(=O)N[C@@H](CCCc2cc(C)cc(C)c2)C(=O)Nc2ccccc2)cc1 [P23] ({Malonyl(2,2-Me2,histaminyl)}-[Ala(1H-tetrazol-5-yl)]GT[αMePhe(2-F)]TSD[Bip(2'-Et,4'-O(CH2)4NH2)][Nva(5-(3,5-Me2Ph))]-NHPh) shows Relative Potency (% M2361 EC50) strictly lower than 30%.
Return: FALSE

Enquiry: Determine if CCc1cc(OCCCCn2cc(COCCOCCOCCOCCOCCOCCOCCOCCN)nn2)ccc1-c1ccc(C[C@H](NC(=O)[C@H](CC(=O)O)NC(=O)[C@H](CO)NC(=O)[C@@H](NC(=O)[C@](C)(Cc2ccccc2F)NC(=O)[C@@H](NC(=O)CNC(=O)[C@H](Cc2nn[nH]n2)NC(=O)C(C)(C)C(=O)NCCc2cnc[nH]2)[C@@H](C)O)[C@@H](C)O)C(=O)N[C@@H](CCCc2cc(C)cc(C)c2)C(N)=O)cc1 shows Relative Potency (% M2361 EC50) strictly lower than 30%.
Return: FALSE

Enquiry: Determine if CCc1cc(OCCCCNC(=O)CNC(=O)CNC(=O)CNC(=O)CNC(=O)[C@H](CO)NC(=O)CCC(=O)N2Cc3ccccc3C#Cc3ccccc32)ccc1-c1ccc(C[C@H](NC(=O)[C@H](CC(=O)O)NC(=O)[C@H](CO)NC(=O)[C@@H](NC(=O)[C@](C)(Cc2ccccc2F)NC(=O)[C@@H](NC(=O)CNC(=O)[C@H](Cc2nn[nH]n2)NC(=O)C(C)(C)C(=O)NCCc2cnc[nH]2)[C@@H](C)O)[C@@H](C)O)C(=O)N[C@@H](CCCc2cc(C)cc(C)c2)C(N)=O)cc1 shows Relative Potency (% M2361 EC50) strictly lower than 30%.
Return: FALSE

Enquiry: Determine if CCc1cc(OCCCCN)ccc1-c1ccc(C[C@H](NC(=O)[C@H](CC(=O)O)NC(=O)[C@H](CO)NC(=O)[C@@H](NC(=O)[C@](C)(Cc2ccccc2F)NC(=O)[C@@H](NC(=O)CNC(=O)[C@H](Cc2nn[nH]n2)NC(=O)[C@H](C)NC(=O)[C@@H](N)Cc2cnc[nH]2)[C@@H](C)O)[C@@H](C)O)C(=O)N[C@@H](CCCc2cc(C)cc(C)c2)C(N)=O)cc1 [P10] (H-HA[Ala(1H-tetrazol-5-yl)]GT[αMePhe(2-F)]TSD[Bip(2'-Et,4'-O(CH2)4NH2)][Nva(5-(3,5-Me2Ph))]-NH2) shows Relative Potency (% M2361 EC50) strictly lower than 30%.
Return: FALSE

Enquiry: Determine if CCc1cc(OCCCCNC(=O)CCOCCOCCOCCOCCOCCOCCOCCOCCOCCOCCOCCOCCOCCOCCOCCOCCOCCOCCOCCOCCOCCOCCOCCOCCNC(=O)CCC(=O)N2Cc3ccccc3-c3nn[nH]c3-c3ccccc32)ccc1-c1ccc(C[C@H](NC(=O)[C@H](CC(=O)O)NC(=O)[C@H](CO)NC(=O)[C@@H](NC(=O)[C@](C)(Cc2ccccc2F)NC(=O)[C@@H](NC(=O)CNC(=O)[C@H](Cc2nn[nH]n2)NC(=O)C(C)(C)C(=O)NCCc2cnc[nH]2)[C@@H](C)O)[C@@H](C)O)C(=O)N[C@@H](CCCc2cc(C)cc(C)c2)C(C)=O)cc1 shows Relative Potency (% M2361 EC50) strictly lower than 30%.
Return: FALSE
